biological target: Free fatty acid receptor 1 (Homo sapiens, UniProt O14842); assay: Agonist activity at human FFA1 receptor expressed in CHO cells assessed as Ca2+ influx by FLIPR assay; assay type: functional, cell-based
Sequence (O14842 whole entry): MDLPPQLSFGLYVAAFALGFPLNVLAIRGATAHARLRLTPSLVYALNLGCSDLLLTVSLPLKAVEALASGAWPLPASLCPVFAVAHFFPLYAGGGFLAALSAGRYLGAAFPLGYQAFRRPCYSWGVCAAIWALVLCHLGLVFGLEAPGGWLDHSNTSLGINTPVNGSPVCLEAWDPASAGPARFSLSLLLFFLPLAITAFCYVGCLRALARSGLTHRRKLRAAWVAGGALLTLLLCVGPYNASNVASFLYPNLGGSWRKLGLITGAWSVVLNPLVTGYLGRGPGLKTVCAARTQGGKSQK
measurement-label: pEC50
Please express pEC50 as -log10 of the molar concentration.

Consider the worked cases shown below.
>>> print(df.to_string())
                                   compound  result_number
0  COc1ccc(-c2nc(C)c(COc3ccc4c(c3)OCC4CC(=O)O)s2)cc1 (centres undefined)           6.91
1  Cc1ccc(-c2nc(C)c(COc3ccc4c(c3)OCC4CC(=O)O)s2)cc1 (centres undefined)           7.13
2  Cc1nc(-c2ccc(F)cc2)sc1COc1ccc2c(c1)OCC2CC(=O)O (centres undefined)           7.31
3  Cc1cccc(-c2nc(C)c(COc3ccc4c(c3)OCC4CC(=O)O)s2)c1 (centres undefined)           6.93
4  Cc1nc(-c2cccc(Cl)c2)sc1COc1ccc2c(c1)OCC2CC(=O)O (centres undefined)           6.86
5  Cc1nc(-c2ccc(Cl)cc2)sc1COc1ccc2c(c1)OCC2CC(=O)O (centres undefined)           7.07
6  Cc1nc(-c2ccsc2)sc1COc1ccc2c(c1)OCC2CC(=O)O (centres undefined)           7.16
7  Cc1nc(-c2cccc(F)c2)sc1COc1ccc2c(c1)OCC2CC(=O)O (centres undefined)           7.19

Next:
*Q* What does the record list as pEC50 for Cc1nc(-c2ccc(C(F)(F)F)cc2)sc1COc1ccc2c(c1)OCC2CC(=O)O (centres undefined) ?
*A* 7.01

###

biological target: Free fatty acid receptor 1 (Homo sapiens); assay: Agonist activity at human FFA1 receptor expressed in CHO cells assessed as Ca2+ influx at 300 nM by FLIPR assay; format: functional, cell-based
measurement-label: Activity
Please provide the amount together with its unit, number first.

>>> df
                                   compound  result
0  O=C(O)CC1COc2cc(OCc3nnc(-c4ccccc4)o3)ccc21 (stereo not given)   6.31%
1  Cc1nc(-c2ccccc2)sc1COc1ccc2c(c1)OCC2CC(=O)O (stereo not given)   67.4%
2  O=C(O)CC1COc2cc(OCc3cn(-c4ccccc4)nn3)ccc21 (stereo not given)   0.89%

*Q* Would you mind telling me what Activity value was observed for O=C(O)CC1COc2cc(OCc3csc(-c4ccccc4)n3)ccc21 (stereo not given) ?
*A* 5.67%

*Q* Would you kindly repeat that for O=C(O)CC1COc2cc(OCc3nnc(-c4ccccc4)s3)ccc21 (stereo not given) ?
*A* 13.7%

###

target: Free fatty acid receptor 1 (Homo sapiens, UniProt O14842); assay: Agonist activity at human FFA1 receptor expressed in CHO cells assessed as Ca2+ influx at 100 nM by FLIPR assay; type: functional, cell-based
measurement-label: Activity (%)
Write the value in % as a bare number.

Worked cases, Activity given:
                                   molecule  result_number
0  COc1cc(OC)cc(-c2nc(C)c(COc3ccc4c(c3)OCC4CC(=O)O)s2)c1 (stereo not given)           17.5
1  Cc1nc(-c2ccc(Cl)cc2)sc1COc1ccc2c(c1)OCC2CC(=O)O (stereo not given)           53.4
2  O=C(O)CC1COc2cc(OCc3ncc(-c4ccccc4)o3)ccc21 (stereo not given)           2.34

*Q* Missing value: Activity, Free fatty acid receptor 1 (Homo sapiens, UniProt O14842), entry Cc1ccccc1-c1nc(C)c(COc2ccc3c(c2)OCC3CC(=O)O)s1 (stereo not given) . Fill in?
*A* 10.7

###

target: Free fatty acid receptor 1 (Homo sapiens, UniProt O14842); assay: Agonist activity at human FFA1 receptor expressed in CHO cells assessed as Ca2+ influx at 300 nM by FLIPR assay; assay type: functional, cell-based
Binary classification by Activity, with 10% as an inclusive lower bound for 1 (yes); all other cases are 0 (no).

// known answers, use as guide
                                   compound      cat
0  Cc1nc(-c2ccccc2)oc1COc1ccc2c(c1)OCC2CC(=O)O (stereo unspecified)  1 (yes)
1  O=C(O)CC1COc2cc(OCc3ncc(-c4ccccc4)s3)ccc21 (stereo unspecified)  1 (yes)
2  Cc1cc(COc2ccc3c(c2)OCC3CC(=O)O)nn1-c1ccccc1 (stereo unspecified)   0 (no)

*Q* // inclusive: Activity at least 10%? input: O=C(O)CC1COc2cc(OCc3cc(-c4ccccc4)on3)ccc21 (stereo unspecified)
*A* 0 (no)

*Q* Proceed to O=C(O)CC1COc2cc(OCc3nc(-c4ccccc4)cs3)ccc21 (stereo unspecified)
*A* 0 (no)

###

target: Free fatty acid receptor 1 (Homo sapiens, UniProt O14842); experiment: Agonist activity at human FFA1 receptor expressed in CHO cells assessed as Ca2+ influx at 100 nM by FLIPR assay; type: functional, cell-based
Each entry falls in a class defined on Activity; the bands are bottom bin (below 7%), middle bin (7% to below 40%), top bin (40% or more)

Past entries and their recorded results:
In [3]: df
Out[3]:
                                   compound         cat
0  Cc1nc(-c2ccc(Cl)s2)sc1COc1ccc2c(c1)OCC2CC(=O)O (stereo unspecified)  middle bin
1  COc1cc(-c2nc(C)c(COc3ccc4c(c3)OCC4CC(=O)O)s2)cc(OC)c1OC (stereo unspecified)  middle bin
2  O=C(O)CC1COc2cc(OCc3nc(-c4ccccc4)cs3)ccc21 (stereo unspecified)  bottom bin

*Q* For the record Cc1nc(-c2cccs2)sc1COc1ccc2c(c1)OCC2CC(=O)O (stereo unspecified) , report the class its Activity corresponds to.
*A* middle bin

*Q* Repeat for the following compound: Cc1nc(-c2ccccc2F)sc1COc1ccc2c(c1)OCC2CC(=O)O (stereo unspecified)
*A* middle bin

*Q* Check Cc1nc(-c2ccccc2)sc1COc1ccc2c(c1)OCC2CC(=O)O (stereo unspecified) too.
*A* top bin

*Q* Also Cc1nc(-c2ccc(C(F)(F)F)cc2)sc1COc1ccc2c(c1)OCC2CC(=O)O (stereo unspecified) ?
*A* top bin

*Q* What do you get for Cc1nc(-c2ccc(F)cc2)sc1COc1ccc2c(c1)OCC2CC(=O)O (stereo unspecified) ?
*A* top bin

*Q* Moving on to the next compound: O=C(O)CC1COc2cc(OCc3nnc(-c4ccccc4)o3)ccc21 (stereo unspecified)
*A* bottom bin

*Q* Note, next up: O=C(O)CC1COc2cc(OCc3nnc(-c4ccccc4)s3)ccc21 (stereo unspecified)
*A* bottom bin

*Q* COc1ccc(-c2nc(C)c(COc3ccc4c(c3)OCC4CC(=O)O)s2)cc1 (stereo unspecified) , same question.
*A* top bin

*Q* // same read-out, input: Cc1nc(-c2cccc(C(F)(F)F)c2)sc1COc1ccc2c(c1)OCC2CC(=O)O (stereo unspecified)
*A* middle bin

*Q* Try this compound too: Cc1nc(-c2ccsc2)sc1COc1ccc2c(c1)OCC2CC(=O)O (stereo unspecified)
*A* top bin

*Q* And for Cc1cccc(-c2nc(C)c(COc3ccc4c(c3)OCC4CC(=O)O)s2)c1 (stereo unspecified) ?
*A* top bin

*Q* Same lookup for Cc1cc(COc2ccc3c(c2)OCC3CC(=O)O)nn1-c1ccccc1 (stereo unspecified) , please.
*A* bottom bin

*Q* Try Cc1ccc(-c2nc(C)c(COc3ccc4c(c3)OCC4CC(=O)O)s2)cc1 (stereo unspecified) next.
*A* top bin

###

target: Free fatty acid receptor 1 (Homo sapiens); assay: Agonist activity at human FFA1 receptor expressed in CHO cells assessed as Ca2+ influx at 100 nM by FLIPR assay; assay type: functional, cell-based
Measured Activity accompanies every entry in the list below.

>>> df
                                   compound  measurement_label  result
0  Cc1nc(-c2cccc3ccccc23)sc1COc1ccc2c(c1)OCC2CC(=O)O (stereo not given)           Activity   8.53%

*Q* Provide value of Activity for this record tested with Free fatty acid receptor 1 (Homo sapiens): Cc1nc(-c2cccc(Cl)c2)sc1COc1ccc2c(c1)OCC2CC(=O)O (stereo not given)
*A* 43%

*Q* // repeat for Cc1nc(-c2cc3ccccc3o2)sc1COc1ccc2c(c1)OCC2CC(=O)O (stereo not given) and report
*A* 14.8%

*Q* Also need O=C(O)CC1COc2cc(OCc3cc(-c4ccccc4)on3)ccc21 (stereo not given) , thanks.
*A* 0.84%

*Q* Param item: O=C(O)CC1COc2cc(OCc3ncc(-c4ccccc4)s3)ccc21 (stereo not given)
*A* 5.26%

*Q* Consider next the compound Cc1nc(-c2ccccc2C(F)(F)F)sc1COc1ccc2c(c1)OCC2CC(=O)O (stereo not given) in the same way.
*A* 7.76%

*Q* And then Cc1nc(-c2ccccc2)oc1COc1ccc2c(c1)OCC2CC(=O)O (stereo not given) , what is it?
*A* 7.15%

*Q* Now give it for Cc1nc(-c2cccc(F)c2)sc1COc1ccc2c(c1)OCC2CC(=O)O (stereo not given) too.
*A* 56.9%

*Q* Input O=C(O)CC1COc2cc(OCc3csc(-c4ccccc4)n3)ccc21 (stereo not given)
*A* 0.15%

*Q* Next record, please: Cc1nc(-c2ccccc2Cl)sc1COc1ccc2c(c1)OCC2CC(=O)O (stereo not given)
*A* 12.4%

These data points were gathered from ChEMBL document CHEMBL3779858.
